Target: AR (gene 367) (UniProt P10275)
Sequence (P10275 whole entry, looked up): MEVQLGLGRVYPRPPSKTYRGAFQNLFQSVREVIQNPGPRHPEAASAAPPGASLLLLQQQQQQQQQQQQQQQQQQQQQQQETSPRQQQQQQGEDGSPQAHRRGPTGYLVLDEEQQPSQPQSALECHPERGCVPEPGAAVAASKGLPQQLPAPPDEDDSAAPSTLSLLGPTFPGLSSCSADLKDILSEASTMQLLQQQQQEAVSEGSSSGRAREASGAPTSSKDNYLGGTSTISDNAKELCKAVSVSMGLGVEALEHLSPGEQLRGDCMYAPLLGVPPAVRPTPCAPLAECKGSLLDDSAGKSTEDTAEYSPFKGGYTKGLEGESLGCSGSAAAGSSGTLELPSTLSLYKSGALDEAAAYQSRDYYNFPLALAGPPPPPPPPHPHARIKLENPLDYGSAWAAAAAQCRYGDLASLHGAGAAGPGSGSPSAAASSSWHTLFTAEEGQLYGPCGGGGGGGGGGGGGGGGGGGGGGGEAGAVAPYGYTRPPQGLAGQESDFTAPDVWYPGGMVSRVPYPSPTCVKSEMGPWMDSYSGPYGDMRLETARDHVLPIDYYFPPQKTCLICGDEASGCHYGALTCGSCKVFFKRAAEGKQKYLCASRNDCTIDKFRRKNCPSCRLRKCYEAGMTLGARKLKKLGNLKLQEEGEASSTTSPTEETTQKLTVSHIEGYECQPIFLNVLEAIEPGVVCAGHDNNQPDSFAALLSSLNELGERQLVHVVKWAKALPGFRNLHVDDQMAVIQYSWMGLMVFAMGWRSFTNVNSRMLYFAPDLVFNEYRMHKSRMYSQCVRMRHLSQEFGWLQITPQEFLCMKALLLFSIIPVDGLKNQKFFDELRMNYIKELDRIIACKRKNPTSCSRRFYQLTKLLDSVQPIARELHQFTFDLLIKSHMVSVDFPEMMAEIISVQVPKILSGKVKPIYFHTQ
Experiment: ACEA_AR_agonist_80hr: ACEA Biosciences xCELLigence Real-Time Cell Analysis on Androgen Receptor Agonism for Proliferation (AID 2283783);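 further: hits increase impedance growth signal above DMSO baseline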
Records with an inconclusive call do not appear. The source made the active and inactive calls. How the source made its calls: active means hit-call score of the fitted dose curve at least 0.9, where 1 is the maximum; inconclusive means response in the unintended direction; inactive means score below 0.9.
Response enum: active, inactive

## Task What outcome does the record of this test show for Cc1nc(-c2ccccn2)ncc1C(=O)Nn1cc(C)c2cc(F)ccc21 ?
## Result active

## Task Field: outcome | Entry: CCCCCCCCCCCCCCCCOS(=O)(=O)O
## Result inactive

## Task State the result this test recorded for CCCCCCOC(=O)CC(CC(=O)OCCCCCC)(OC(=O)CCC)C(=O)OCCCCCC .
## Result inactive

## Task Dear colleague, could you share the recorded outcome for CCc1cccc(CC)c1N when you have a moment?
## Result inactive

## Task Please state the recorded outcome for this compound: COc1cc(C(C)C)c2c(c1)S(=O)(=O)N(COc1cc(=O)n3cccc(OCCN4CCCCC4)c3n1)C2=O
## Result inactive

## Task Tell me the recorded outcome of this test for CCCCC(CC)C(=O)OCCOCCOCCOC(=O)C(CC)CCCC (stereo unspecified) .
## Result inactive
